- target.entity: recombinant IL4I1 (Homo sapiens (Human))
- Sequence (Q96RQ9 22-567): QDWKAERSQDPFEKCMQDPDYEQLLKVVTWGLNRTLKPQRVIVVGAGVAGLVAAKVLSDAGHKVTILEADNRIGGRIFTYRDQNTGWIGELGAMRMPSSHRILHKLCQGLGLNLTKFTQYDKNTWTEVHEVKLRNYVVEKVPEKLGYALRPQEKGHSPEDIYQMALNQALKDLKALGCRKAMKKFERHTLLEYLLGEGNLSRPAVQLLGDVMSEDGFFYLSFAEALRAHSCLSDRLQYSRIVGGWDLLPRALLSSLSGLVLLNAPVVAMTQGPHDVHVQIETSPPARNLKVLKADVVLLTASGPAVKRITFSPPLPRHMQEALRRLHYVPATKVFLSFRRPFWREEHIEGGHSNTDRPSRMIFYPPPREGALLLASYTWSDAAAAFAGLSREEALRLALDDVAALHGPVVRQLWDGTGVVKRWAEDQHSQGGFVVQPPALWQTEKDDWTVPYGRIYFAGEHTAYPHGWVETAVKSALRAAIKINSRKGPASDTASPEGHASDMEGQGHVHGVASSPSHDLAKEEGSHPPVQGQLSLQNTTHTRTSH
- assay.overview: IL4I1 Enzymatic Assay (Amplex Red/HRP coupled fluorescence detection of H2O2)
- Type: biochemical
- condition.context: 240 min; recombinant IL4I1, four-hour pre-incubation with compound
Please note: EC50 exactly at 20 nM is f. Only values below 20 nM get t.

Given `CC1(n2ccn(Cc3cc(-c4ccc(F)cc4)on3)c(=O)c2=O)CCC1` , is recorded EC50 strictly lower than 20 nM? t

Given CC1CN(C2CCC2)C(=O)C(=O)N1Cc1nnc(-c2ccccc2)s1 (single isomer, unassigned) [Example 437] , is recorded EC50 strictly lower than 20 nM? f

Given `O=c1c(=O)n(C2(CF)CC2)ccn1Cc1ccc(-n2ccnn2)cn1` , is recorded EC50 strictly lower than 20 nM? f

Given `N#CC1(n2ccn(Cc3ccc(-c4ccccc4F)nn3)c(=O)c2=O)CC1` , is recorded EC50 strictly lower than 20 nM? f

Given `O=c1c(=O)n(C23CC(C2)C3)ccn1Cc1ccc(-c2ccccn2)cn1` , is recorded EC50 strictly lower than 20 nM? f

Given O=C1C(=O)N([C@@H]2CC[C@@H](c3ccccc3)C2)CCN1Cc1nnc(-c2ccccc2)s1 (single isomer, unassigned) [Example 440C] , is recorded EC50 strictly lower than 20 nM? t

Given `CC1(n2ccn(Cc3ccc(-c4nccs4)nn3)c(=O)c2=O)CC1` , is recorded EC50 strictly lower than 20 nM? f

Given `O=C1C(=O)N([C@H]2C[C@H]3C[C@H]3C2)CCN1Cc1cc(-c2ccccc2)no1` , is recorded EC50 strictly lower than 20 nM? t

Given `O=c1c(=O)n([C@H]2C[C@H](c3ccccc3)C2)ccn1Cc1nnc(-c2ccccc2)s1` , is recorded EC50 strictly lower than 20 nM? t

Given `O=c1c(=O)n(C23CC(C2)C3)ccn1Cc1cn(-c2cccnc2)nn1` , is recorded EC50 strictly lower than 20 nM? f

Given `O=c1c(=O)n(C2CCCC2)ccn1Cc1nnc(-c2ccccc2)s1` , is recorded EC50 strictly lower than 20 nM? t

Given `O=c1c(=O)n(C2(CF)CC2)ccn1Cc1cc(-c2cccnc2)no1` , is recorded EC50 strictly lower than 20 nM? f

Given `CC(C)(c1cccnc1)N1CCN(Cc2nnc(-c3ccccc3)s2)C(=O)C1=O` , is recorded EC50 strictly lower than 20 nM? f

Given `O=c1c(=O)n([C@H]2C[C@@H](c3ccccc3)C2)ccn1Cc1nnc(-c2nccs2)s1` , is recorded EC50 strictly lower than 20 nM? f

Given `CC1(n2ccn(Cc3ccc(-c4cccnc4)nn3)c(=O)c2=O)CC1` , is recorded EC50 strictly lower than 20 nM? f

Given `C[C@H](c1nnc(-c2ccccc2)s1)N1CCN(C2CCC2)C(=O)C1=O` , is recorded EC50 strictly lower than 20 nM? f

Given `O=C1C(=O)N(C2CCC2)CCN1Cc1ncc(-n2nccn2)cc1F` , is recorded EC50 strictly lower than 20 nM? f

Given `CC(C)N1CCN(Cc2ncc(-c3ccccc3)cn2)C(=O)C1=O` , is recorded EC50 strictly lower than 20 nM? f

Given `O=C1C(=O)N(C2CCC2)CCN1Cc1cc(-c2ccccc2)no1` , is recorded EC50 strictly lower than 20 nM? t

Given `O=c1c(=O)n(C2CCC2)ccn1Cc1cn(-c2ccccc2)cn1` , is recorded EC50 strictly lower than 20 nM? t

Given `O=C1C(=O)N(C2CCCC2)CCN1Cc1cnc(-c2ccccc2)nn1` , is recorded EC50 strictly lower than 20 nM? t

Given `O=c1c(=O)n(C2(CF)CC2)ccn1Cc1cc(-c2cccnc2)on1` , is recorded EC50 strictly lower than 20 nM? f

Given `O=C1C(=O)N(C23CC(C2)C3)CCN1Cc1ccc(-c2ccccc2)nc1` , is recorded EC50 strictly lower than 20 nM? t

Given `O=C1C(=O)N(C23CC(C2)C3)CCN1Cc1ccc(-n2nccn2)cn1` , is recorded EC50 strictly lower than 20 nM? f
